assay: Pharmacokinetic investigation in mice (PO and IP); format: in vivo, mice of BALB/c line; details: BALB/c, mouse, plasma, PO, dose not given, read-out: T½
endpoint: half-life (min)
The answer is to be given in min; state only the numeric part.

Problem: Recorded half-life for Cc1cccn2cc(-c3ccc(NC(=O)c4ccccc4Br)cc3)nc12 , please?
Solution: 59

* * *

test: Pharmacokinetic investigation in mice (PO and IP); type: in vivo, mice of BALB/c line; details: BALB/c, mouse, plasma, IP, 5 mg/Kg
endpoint: Cmax (ng/mL)
The answer is to be given in ng/mL; state only the numeric part.

Consider the following illustrative entries.
>>> numeric_value("CN1CCN(C(=O)C2CCN(C(=O)c3cc4sccc4n3Cc3ccc(Cl)cc3)CC2)CC1")
289
>>> numeric_value("Cc1ccn2cc(-c3cccc(NC(=O)c4sc(-c5ccccc5)nc4C)c3)nc2c1")
357
>>> numeric_value("Cc1cccn2cc(-c3ccc(NC(=O)c4ccccc4F)cc3)nc12")
1040

Consider the record given below.
Problem: Recorded Cmax for O=C(c1cc2sccc2n1Cc1ccc(Cl)cc1)N1CCC(C(=O)N2CCCCCC2)CC1 , please?
Solution: 167

* * *

assay: Pharmacokinetic investigation in mice (PO and IP); assay type: in vivo, mice of BALB/c line; settings: BALB/c, mouse, plasma, PO, 5 mg/Kg
endpoint: Cmax

Consider the following illustrative entries.
>>> result("Cc1cccn2cc(-c3ccc(NC(=O)c4ccccc4F)cc3)nc12")
"564 ng/mL"
>>> result("Cc1ccn2cc(-c3cccc(NC(=O)c4sc(-c5ccccc5)nc4C)c3)nc2c1")
"398 ng/mL"

Consider the record given below.
Problem: Recorded Cmax for O=C(c1cc2sccc2n1Cc1ccc(Cl)cc1)N1CCC(C(=O)N2CCCCCC2)CC1 , please?
Solution: 71 ng/mL

* * *

endpoint: melting point

Consider the following illustrative entries.
>>> result("Cc1cccc(N2CCN(C(=O)Cn3nc(C)c4c(C)n(-c5ccccc5)nc4c3=O)CC2)c1C")
"249 to 251 °C"
>>> result("Cc1cccc(N2CCN(C(=O)C(C)n3nc(C)c4c(C)n(-c5ccccc5)nc4c3=O)CC2)c1C (stereo not shown)")
"136 to 138 °C"
>>> result("Cc1nn(CC(=O)N2CCN(c3ccccc3)CC2)c(=O)c2nn(-c3ccccc3)c(C)c12")
"252 to 254 °C"

Problem: Recorded melting point for CCOc1ccc(NC(=O)c2ccnc(N3CCC(C(=O)Nc4cccc(SC)c4)CC3)c2)cc1 , please?
Solution: 200 to 202 °C

* * *

assay: Pharmacokinetic investigation in mice (PO and IP); assay type: in vivo, mice of BALB/c line; conditions: BALB/c, mouse, plasma, IP, 5 mg/Kg, read-out: T½
endpoint: half-life (h)
The answer is to be given in h; state only the numeric part.

Problem: Recorded half-life for O=C(c1cc2sccc2n1Cc1ccc(Cl)cc1)N1CCC(C(=O)N2CCCCCC2)CC1 , please?
Solution: 1.07

Problem: Another compound to check: Cc1ccn2cc(-c3cccc(NC(=O)c4sc(-c5ccccc5)nc4C)c3)nc2c1
Solution: 1.12

Problem: Another compound to check: Cc1cccn2cc(-c3ccc(NC(=O)c4ccccc4F)cc3)nc12
Solution: 0.733

Problem: Another compound to check: CN1CCN(C(=O)C2CCN(C(=O)c3cc4sccc4n3Cc3ccc(Cl)cc3)CC2)CC1
Solution: 1.13

* * *

As shown below, each of these molecules has a reported bioavailability value.
test: Pharmacokinetic investigation in mice (PO and IP); format: in vivo, mice of BALB/c line; conditions: BALB/c, mouse, plasma, read-out: % F (PO/IV)
The answer is to be given in %; state only the numeric part.

>>> numeric_value("Cc1ccn2cc(-c3cccc(NC(=O)c4sc(-c5ccccc5)nc4C)c3)nc2c1")
19
>>> numeric_value("Cc1cccn2cc(-c3ccc(NC(=O)c4ccccc4F)cc3)nc12")
64
>>> numeric_value("CN1CCN(C(=O)C2CCN(C(=O)c3cc4sccc4n3Cc3ccc(Cl)cc3)CC2)CC1")
63
>>> numeric_value("COc1cccc(N2CCN(C(=O)Cn3nc(C)c4c(C)n(-c5ccccc5)nc4c3=O)CC2)c1")
35
>>> numeric_value("O=C(c1cc2sccc2n1Cc1ccc(Cl)cc1)N1CCC(C(=O)N2CCCCCC2)CC1")
3

Consider the record given below.
Problem: Recorded bioavailability for Cc1cccn2cc(-c3ccc(NC(=O)c4ccccc4Br)cc3)nc12 , please?
Solution: 75

* * *

tested on: Hh-signalling cascade; assay: Inhibition of SHh-induced alkaline phosphatase in C3H10T1/2 cells (Hh-signalling cascade inhibition); format: cell-based; conditions: Mus musculus, C3H 10T1/2, half maximal inhibition of SHh (0.3 μg/ml) stimulation of cell alkaline phosphatase
pIC50: −log10 of the molar value.
endpoint: pIC50

>>> result("Cc1ccc(C)c(N2CCN(C(=O)Cn3nc(C)c4c(C)n(-c5ccccc5)nc4c3=O)CC2)c1")
"> 6.30"

Problem: Recorded pIC50 for O=C(Nc1cccc(-c2cn3ccccc3n2)c1)c1ccc(F)cc1 , please?
Solution: > 6.30

Problem: Another molecule to check: Cc1nn(CCC(=O)NCc2cccs2)c(=O)c2nn(-c3ccccc3)c(C)c12
Solution: > 5.30

Problem: Another molecule to check: CCOc1ccc(NC(=O)c2ccnc(N3CCC(C(=O)Nc4cc(C)cc(C)c4)CC3)c2)cc1
Solution: > 5.30

* * *

Tested on: Hh-signalling cascade
Experiment: Inhibition of SHh-induced alkaline phosphatase in C3H10T1/2 cells (Hh-signalling cascade inhibition)
Assay type: cell-based
Settings: Mus musculus, C3H 10T1/2, half maximal inhibition of SHh (0.3 μg/ml) stimulation of cell alkaline phosphatase
Protocol: C3H10T1/2 Cells were used for identification of inhibitors of SHh-protein signaling cascade. […] The ability of the compounds to inhibit Hh-signalling cascade was determined using C3H10T1/2 cells in 384-well plates as described in example 1. […]
pIC50: −log10 of the molar value.
endpoint: pIC50

>>> result("Cc1cccn2cc(-c3ccc(NC(=O)Cc4ccccc4)cc3)nc12")
"> 5.30"
>>> result("CCOc1ccc(NC(=O)c2ccnc(N3CCC(C(=O)Nc4ccc(C(C)C)cc4)CC3)c2)cc1")
"> 5.30"
>>> result("CCOc1ccc(NC(=O)c2ccnc(N3CCC(C(=O)Nc4ccccc4OC)CC3)c2)cc1")
"> 5.30"
>>> result("Cc1nn(C(C)C(=O)N2CCN(Cc3ccccc3)CC2)c(=O)c2nn(-c3ccccc3)c(C)c12 (centres unmarked)")
"> 6.30"
>>> result("Cc1nn(C(C)C(=O)N2CCN(c3ccccc3)CC2)c(=O)c2nn(-c3ccccc3)c(C)c12 (centres unmarked)")
"> 6.30"
>>> result("CN1CCc2c(sc(NC(=O)C3CCCCC3)c2-c2nc3ccccc3s2)C1.Cl")
"> 6.30"

Problem: Recorded pIC50 for O=C(NCc1ccccn1)C1CCN(C(=O)c2cc3sccc3n2Cc2ccc(F)cc2F)CC1 , please?
Solution: > 5.30

Problem: Another compound to check: Cc1ccc(NC(=O)C2CCN(C(=O)c3cc4sccc4n3Cc3ccc(F)cc3)CC2)c(C)c1
Solution: > 6.30

* * *

As shown below, each of these compounds has a reported half-life value.
test: Pharmacokinetic investigation in mice (PO and IP); type: in vivo, mice of BALB/c line; conditions: BALB/c, mouse, plasma, PO, 5 mg/Kg, read-out: T½

>>> result("Cc1ccn2cc(-c3cccc(NC(=O)c4sc(-c5ccccc5)nc4C)c3)nc2c1 [III-1017]")
"55 min"
>>> result("COc1cccc(N2CCN(C(=O)Cn3nc(C)c4c(C)n(-c5ccccc5)nc4c3=O)CC2)c1 [I-1001]")
"125 min"

Consider the record given below.
Problem: Recorded half-life for Cc1cccn2cc(-c3ccc(NC(=O)c4ccccc4F)cc3)nc12 [III-1011] , please?
Solution: 58 min
